assay-comment: Brain and plasma concentrations in mice after intraperitoneal administration (LC-MS-MS), non-compartmental analysis
Type: in vivo
protocol-conditions: male, Swiss-Webster, mouse, plasma, ip, 10 mg/kg, 4 h, 10 mg/kg i.p., individual mice; read-out: [drug],plasma (free base equivalent)
Below, each entry is listed with its recorded concentration at 4 h.

{"columns": ["smiles-str", "concentration at 4 h / ng/mL"],
 "data": [
  ["N=C(N)Nc1ccc2[nH]c3c(c2c1)C[C@@]1(O)[C@H]2Cc4ccc(O)c5c4[C@@]1(CCN2CC1CC1)[C@H]3O5", 142],
  ["Oc1ccc2c3c1O[C@H]1c4[nH]c5c(c4C[C@@]4(O)[C@@H](C2)N(CC2CC2)CC[C@]314)C[C@@]1(O)[C@H]2Cc3ccc(O)c4c3[C@@]1(CCN2CC1CC1)[C@H]5O4", 116]
]}
